- assayedSystem: TEAD1 (Homo sapiens, UniProt P28347)
- Sequence (P28347 whole entry, species assumed): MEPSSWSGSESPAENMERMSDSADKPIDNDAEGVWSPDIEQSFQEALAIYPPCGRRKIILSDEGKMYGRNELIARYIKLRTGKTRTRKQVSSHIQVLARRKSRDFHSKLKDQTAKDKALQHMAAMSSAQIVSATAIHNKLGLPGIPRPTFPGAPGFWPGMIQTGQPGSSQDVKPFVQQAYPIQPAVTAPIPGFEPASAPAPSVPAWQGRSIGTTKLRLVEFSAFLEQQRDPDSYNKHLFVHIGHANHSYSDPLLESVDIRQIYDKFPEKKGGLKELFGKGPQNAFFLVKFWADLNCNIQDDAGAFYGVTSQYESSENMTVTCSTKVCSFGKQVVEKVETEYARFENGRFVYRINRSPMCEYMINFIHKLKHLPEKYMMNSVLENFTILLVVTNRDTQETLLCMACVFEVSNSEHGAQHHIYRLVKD
- protocolDetails: Thermal shift assay TEAD1
- Assay type: binding
measuredMetric: TEAD1 ΔTm (°C)
Note: unit °C is implicit; provide only the numeric part.

Looking for the measured TEAD1 ΔTm of Cn1cc2cc(Oc3ccc(C(F)(F)F)cc3)cc(C3C[C@H]3C(=O)O)c2n1 (mixture of isomers) , can you help?
11.6

Entry Cn1cc2cc(Oc3ccc(Cl)cc3)cc([C@@H]3C[C@H]3C(=O)N3C[C@@H]4C[C@H]3C[C@@H]4O)c2n1 (single isomer, unassigned) : reported TEAD1 ΔTm = ?
5.5

Consider the compound Cn1cc2cc(Oc3ccc(C(F)(F)F)cc3)cc(C3C[C@H]3C(=O)N3[C@@H]4CC[C@H]3C[C@@H](O)C4)c2n1 (single isomer, unassigned) and give its measured TEAD1 ΔTm.
6.5

# lookup: TEAD1 ΔTm of CNS(=O)(=O)[C@@H]1C[C@H]1c1cc(Oc2ccc(C(F)(F)F)cc2)cc2c1NCCC2 (racemic)
5.5

Which TEAD1 ΔTm is reported for this compound? Cn1ncc2c(C3C[C@H]3C(=O)O)cc(Oc3ccc(C(F)(F)F)cc3)cc21 (mixture of isomers)
8.8

For Cn1cc2cc(Oc3ccc(C(F)(F)F)cc3)cc(C3C[C@H]3C(=O)N3C4COCC3CC(O)C4)c2n1 (single isomer, unassigned) [Example 116a] , what is its reported TEAD1 ΔTm?
4.6

Looking for the measured TEAD1 ΔTm of Cn1cc2cc(Oc3ccc(C(F)(F)F)cc3)cc(C3C[C@H]3C(=O)NC34CC(O)(C3)C4)c2n1 (single isomer, unassigned) , can you help?
7.3

====

I'd be grateful if you could share measured TEAD1 ΔTm for these entries.
- assayedSystem: TEAD1 (Homo sapiens, UniProt P28347)
- protocolDetails: Thermal shift assay TEAD1
- Format: binding
// units = °C; emit number, no label

Recorded TEAD1 ΔTm for O=C(O)[C@@H]1CC1c1cn(-c2ccc(C(F)(F)F)cc2)c2cccnc12 (mixture of isomers) , please?
3.8

Quick check: TEAD1 ΔTm of Cn1cc2nc(Oc3ccc(C(F)(F)F)cc3)cc([C@@H]3C[C@H]3C(=O)N3C4COCC3C4)c2n1 (single isomer, unassigned) ?
4.6

# query: TEAD1 ΔTm of entry Cc1cn2cc(Oc3ccc(C(F)(F)F)cc3)cc([C@H]3C[C@@H]3C(=O)N3CC(O)C3)c2n1 (single isomer, unassigned) [Example 85b]
7.4

====

- assayedSystem: UniProt:P28347
- protocolDetails: Thermal shift assay TEAD1
- Format: binding
measuredMetric: TEAD1 ΔTm
Record the result as a number with its unit.

Requested read-out TEAD1 ΔTm, target or system UniProt:P28347, entry Cn1ncc2c(C3C[C@H]3C(N)=O)cc(Oc3ccc(C(F)(F)F)cc3)cc21 (mixture of isomers)
5.4 °C

# returns recorded TEAD1 ΔTm (system: UniProt:P28347) for Cn1cc2cc(Oc3ccc(C(F)(F)F)cc3)cc([C@@H]3C[C@H]3C(=O)N3CCC34CC(O)C4)c2n1 (single isomer, unassigned)
7.1 °C

GET /values?readout=TEAD1 ΔTm&system=UniProt:P28347&item= CNC(=O)[C@@H]1CC1c1cc(Oc2ccc(C(F)(F)F)cc2)cc2cccnc12 (mixture of isomers)
6.0 °C
